target: beta-catenin (Homo sapiens (Human)) (UniProt P35222); assay: fluorescence polarization competition; full-length beta-catenin with 5FAM-TCF4(10-53) probe as competitor
Sequence (P35222 whole entry): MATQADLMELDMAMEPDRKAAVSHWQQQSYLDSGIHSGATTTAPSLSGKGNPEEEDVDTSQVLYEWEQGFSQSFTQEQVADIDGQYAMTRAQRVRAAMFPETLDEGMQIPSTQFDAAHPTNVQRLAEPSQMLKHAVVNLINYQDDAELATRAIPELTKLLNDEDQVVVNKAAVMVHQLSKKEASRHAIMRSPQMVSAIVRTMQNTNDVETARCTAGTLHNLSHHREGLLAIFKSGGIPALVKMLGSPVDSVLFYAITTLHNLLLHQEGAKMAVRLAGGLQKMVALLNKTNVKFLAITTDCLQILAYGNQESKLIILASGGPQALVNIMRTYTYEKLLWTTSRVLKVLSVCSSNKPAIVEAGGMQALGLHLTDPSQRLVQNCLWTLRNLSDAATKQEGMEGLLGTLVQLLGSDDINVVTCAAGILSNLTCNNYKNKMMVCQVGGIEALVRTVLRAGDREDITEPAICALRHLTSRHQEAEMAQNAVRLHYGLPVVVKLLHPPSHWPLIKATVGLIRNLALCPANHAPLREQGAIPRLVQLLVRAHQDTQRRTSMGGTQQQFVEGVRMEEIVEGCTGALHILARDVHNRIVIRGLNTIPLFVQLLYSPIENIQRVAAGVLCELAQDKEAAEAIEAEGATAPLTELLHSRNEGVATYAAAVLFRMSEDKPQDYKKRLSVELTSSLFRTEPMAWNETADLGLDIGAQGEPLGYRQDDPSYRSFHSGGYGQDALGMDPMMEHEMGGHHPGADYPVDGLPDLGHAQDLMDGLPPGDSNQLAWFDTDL
Starred links: 1 amine or outer side, 2 acyl side, 3 side chain; linkers in the order of their positions; H or OH if unused. Positions of bridges follow the written chain, without caps; N, C: chain ends. Non-standard residues stand in square brackets, D forms with d. Primed or numbered codes have the meaning given here. PyrS2″ = (S)-3-amino-1-((pent-4-en-1-yloxy)carbonyl)pyrrolidine-3-carboxylic acid (stapling residue), C=CCCCOC(=O)N1CC[C@@](N[*:1])(C(=O)[*:2])C1; B5(4) = 2,2-bis(4-pentenyl)glycine = 2-amino-2-(pent-4-en-1-yl)hept-6-enoic acid (stitching residue), C=CCCCC(CCCC=C)(N[*:1])C(=O)[*:2]; B5(5) = 2,2-bis(4-pentenyl)glycine, 2-amino-2-(pent-4-en-1-yl)hept-6-enoic acid (stitching residue), C=CCCCC(CCCC=C)(N[*:1])C(=O)[*:2]; PyrS2 = (S)-3-amino-1-((pent-4-en-1-yloxy)carbonyl)pyrrolidine-3-carboxylic acid, C=CCCCOC(=O)N1CC[C@@](N[*:1])(C(=O)[*:2])C1; B5(12) = 2-amino-2-(pent-4-en-1-yl)hept-6-enoic acid (two olefin side chains), C=CCCCC(CCCC=C)(N[*:1])C(=O)[*:2]; B5(19) = 2-amino-2-(pent-4-en-1-yl)hept-6-enoic acid (bis(4-pentenyl)glycine), C=CCCCC(CCCC=C)(N[*:1])C(=O)[*:2]; B5(22) = 2-amino-2-(pent-4-en-1-yl)hept-6-enoic acid (two alkene side chains), C=CCCCC(CCCC=C)(N[*:1])C(=O)[*:2]; Phe(3-COOH) = N[C@@H](Cc1cccc(C(=O)O)c1)C(=O)O; Trp(1-Me) = Cn1cc(C[C@H](N)C(=O)O)c2ccccc21; Phe(2-Cl) = N[C@@H](Cc1ccccc1Cl)C(=O)O; Bta = N[C@@H](Cc1csc2ccccc12)C(=O)O; αAllylPro = C=CC[C@@]1(C(=O)O)CCCN1; tBuAla = CC(C)(C)C[C@H](N)C(=O)O; 3Thi = N[C@@H](Cc1ccsc1)C(=O)O; Nle = CCCC[C@H](N)C(=O)O
measurement_name: pEC50
pEC50 here: minus log base 10 of the concentration, concentration in moles per litre.

Quick note, pEC50 for Ac-[αAllylPro]D[tBuAla][B5(22)]DDAAFL[PyrS2][3Thi]WS-NH2 (staple 1-4, 4-11) [I-1432] landed at 7.57

Quick note, pEC50 for Ac-[αAllylPro]D[Nle][B5(5)]DDAAFL[PyrS2″][Phe(2-Cl)][Bta]L-NH2 (staple 1-4, 4-11; also: staple isomer of later HPLC peak) [I-1421] landed at 6.87

Quick note, pEC50 for Ac-[αAllylPro]DL[B5(12)]D[Phe(3-COOH)]AAFL[PyrS2″][3Thi][Bta]Q-NH2 (staple 1-4, 4-11) [I-1406] landed at 8.22

Quick note, pEC50 for Ac-[αAllylPro]D[Nle][B5(12)]DDAAFL[PyrS2″][3Thi][Bta]L-NH2 (staple 1-4, 4-11) [I-1412] landed at 7.10

Quick note, pEC50 for Ac-[αAllylPro]DT[B5(5)]DDAAFL[PyrS2″][3Thi][Bta]L-NH2 (staple 1-4, 4-11) [I-1415] landed at 7.14

Quick note, pEC50 for Ac-[αAllylPro]D[tBuAla][B5(12)]DDAAFL[PyrS2″][3Thi][Bta]L-NH2 (staple 1-4, 4-11) [I-1409] landed at 7.13

Quick note, pEC50 for Ac-[αAllylPro]D[Nle][B5(12)]DDAAF[Nle][PyrS2″]F[Bta]Q-NH2 (staple 1-4, 4-11) [I-1405] landed at 8.05

Quick note, pEC50 for Ac-[αAllylPro]D[tBuAla][B5(4)]DSAAFL[PyrS2″][3Thi][Bta]Q-NH2 (staple 1-4, 4-11) [I-1443] landed at 7.62

Quick note, pEC50 for Ac-[αAllylPro]DL[B5(12)]DDAAFL[PyrS2″][3Thi][Bta]L-NH2 (staple 1-4, 4-11) [I-1410] landed at 7.10

Quick note, pEC50 for Ac-[αAllylPro]D[tBuAla][B5(22)]DDAAFL[PyrS2][3Thi]WQ-NH2 (staple 1-4, 4-11) [I-1431] landed at 7.47

Quick note, pEC50 for Ac-[αAllylPro]DS[B5(12)]DDAAFL[PyrS2″][3Thi][Bta]L-NH2 (staple 1-4, 4-11) [I-1414] landed at 7.08

Quick note, pEC50 for Ac-[αAllylPro]D[Nle][B5(19)]DDAAF[Nle][PyrS2][3Thi][Bta]Q-NH2 (staple 1-4, 4-11) [I-1401] landed at 8.30

Quick note, pEC50 for Ac-[αAllylPro]D[tBuAla][B5(22)]DDAAFL[PyrS2][3Thi][Trp(1-Me)]S-NH2 (staple 1-4, 4-11) [I-1434] landed at 7.08

Quick note, pEC50 for Ac-[αAllylPro]D[tBuAla][B5(5)]DEAAFL[PyrS2″][3Thi][Bta]Q-NH2 (staple 1-4, 4-11) [I-1437] landed at 8.15

Quick note, pEC50 for Ac-[αAllylPro]D[Nle][B5(12)]DDAAFL[PyrS2″][3Thi][Bta]L-NH2 (staple 1-4, 4-11; also: staple isomer, earlier eluting HPLC peak) [I-1411] landed at 6.96

Quick note, pEC50 for Ac-[αAllylPro]DN[B5(12)]DDAAFL[PyrS2″][3Thi][Bta]L-NH2 (staple 1-4, 4-11) [I-1413] landed at 7.13

Quick note, pEC50 for Ac-[αAllylPro]D[tBuAla][B5(5)]DQAAFL[PyrS2″][3Thi][Bta]Q-NH2 (staple 1-4, 4-11) [I-1440] landed at 7.59

Quick note, pEC50 for Ac-[αAllylPro]DL[B5(12)]D[Phe(3-COOH)]AAF[Nle][PyrS2″][3Thi][Bta]Q-NH2 (staple 1-4, 4-11) [I-1407] landed at 8.30

Quick note, pEC50 for Ac-[αAllylPro]DL[B5(12)]DDAAF[Nle][PyrS2″]F[Bta]Q-NH2 (staple 1-4, 4-11) [I-1404] landed at 6.95
